Reported viability, T/C is given for each of the following compounds.
Tested on: PDC 899932-113-R3-J6 complex spheroid viability;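 further: spheroids exposed to agents for seven days before readout; 100% = DMSO vehicle control wells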
ASSAY NOTES: Anticancer human tumor 899932-113-R3-J6-PDC patient-derived melanoma cell line growth inhibition [RAS]
CONDITION CONTEXT: second compound 1 µM; first compound 0.01 µM; hits give low values
Write down the numeric answer in % and omit the unit.

Reference set, count: 4
compound="C=CC(=O)Nc1cc(Nc2nccc(-c3cn(C)c4ccccc34)n2)c(OC)cc1N(C)CCN(C)C + C=CC(=O)N1CCN(c2nc(OCC3CCCN3C)nc3c(F)c(-c4nc(N)cc(C)c4C(F)(F)F)c(Cl)cc23)C(C)C1" measured_endpoint="viability, T/C" result_number=97.2
compound="O=C(c1ccc(F)c(F)c1Nc1ccc(I)cc1F)N1CC(O)([C@@H]2CCCCN2)C1 + C=CC(=O)N1CCN(c2nc(OCC3CCCN3C)nc3c(F)c(-c4nc(N)cc(C)c4C(F)(F)F)c(Cl)cc23)C(C)C1" measured_endpoint="viability, T/C" result_number=46
compound="Nc1ccn(C2OC(CO)C(O)C2(F)F)c(=O)n1 (stereo not given) + C=CC(=O)N1CCN(c2nc(OCC3CCCN3C)nc3c(F)c(-c4nc(N)cc(C)c4C(F)(F)F)c(Cl)cc23)C(C)C1" measured_endpoint="viability, T/C" result_number=64.2
compound="O=C(c1ccc(F)c(F)c1Nc1ccc(I)cc1F)N1CC(O)([C@@H]2CCCCN2)C1 + C#Cc1c(F)ccc2cc(O)cc(-c3ncc4c(N5CC6CCC(C5)N6)nc(OCC56CCCN5CC(F)C6)nc4c3F)c12" measured_endpoint="viability, T/C" result_number=53.4

Form field, viability, T/C with PDC 899932-113-R3-J6 complex spheroid viability, item C=CC(=O)N1CCN(c2nc(OCC3CCCN3C)nc3c(F)c(-c4nc(N)cc(C)c4C(F)(F)F)c(Cl)cc23)C(C)C1 (stereo not given) + C#Cc1c(F)ccc2cc(O)cc(-c3ncc4c(N5CC6CCC(C5)N6)nc(OCC56CCCN5CC(F)C6)nc4c3F)c12 : 108

# value of viability, T/C, PDC 899932-113-R3-J6 complex spheroid viability, item C=CC(=O)Nc1cc(Nc2nccc(-c3cn(C)c4ccccc34)n2)c(OC)cc1N(C)CCN(C)C + C#Cc1c(F)ccc2cc(O)cc(-c3ncc4c(N5CC6CCC(C5)N6)nc(OCC56CCCN5CC(F)C6)nc4c3F)c12 = 113

Values were extracted from PubChem BioAssay AID2060895.
